Test system: Kasumi-1
Assay: Resazurin cell viability assay, Kasumi-1
Type: cell-based, human
Settings: Homo sapiens; Kasumi-1, concentration-response curve, 24 h, resazurin
pEC50: −log10 of the molar value.

MOLECULE | pEC50
C=CC(C)(C)c1[nH]c2ccccc2c1CC1NC(=O)C(Cc2c(C(C)(C)C=C)[nH]c3ccccc23)NC1=O (stereo not shown) [Compound 10, fellutanine C] | 4.30

---

System: Jurkat
Experiment: Resazurin cell viability assay, Jurkat
Assay type: cell-based, human
Settings: Homo sapiens, concentration-response curve, 24 h, resazurin
pEC50: −log10 of the molar value.

COMPOUND | SYSTEM UNDER TEST | pEC50
C=CC(C)(C)c1[nH]c2ccccc2c1CC1NC(=O)C(Cc2c(C(C)(C)C=C)[nH]c3ccccc23)NC1=O (stereo not shown) | Jurkat | 4.30
